TEST_METHOD_NOTES: Dissociation constant, pKa of the compound in aqueous solution by [11]B-NMR analysis
Format: physicochemical
PROPERTY_MEASURED: pKa

> print(dat)
                         molecule  obs.value
1  OB1OCc2ccccc21 [BENZOXABOROLE]        7.2
2  OB1OCCc2ccccc21 [BENZOXABORIN]        8.4

----------
TEST_METHOD_NOTES: Dissociation constant, pKa of the compound in aqueous solution by spectrophotometry
Assay type: physicochemical
PROPERTY_MEASURED: pKa

> print(dat)
            smiles.text  obs.value
1  CC1(C)OB(O)c2ccccc21       8.32
2        OB1OCc2ccccc21       7.34
3       OB1OCCc2ccccc21        8.4
